Measured %Inh by item
# Test system: LATS1
# cond: concentration: 1 μM, replicates: in singlicate; n = 1;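 also: KINOMEscan kinase panel screen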
Reply with just the number (in %).

Some solved entries appear below for comparison.
# molecule, reading
measured = [
    ("Cl.Cl.NCC(NC(=O)c1cc(-c2cccnc2)c(-c2ccnc3[nH]ccc23)s1)c1ccccc1 (centres unmarked)", 0),
    ("Cn1cc(-c2cnc(N)c3c(-c4ccc5c(c4)CCN5C(=O)Cc4ccccc4)csc23)cn1", 1),
    ("Cc1cccc(Nc2nc(N[C@H]3CCCC[C@H]3N)ncc2C(N)=O)c1.Cl", 18),
    ("Cc1cc(-c2ccnc(Nc3cccc(C#N)c3)n2)cc(C)c1O", 0),
]

Problem: For "CC(=O)Nc1cn2nc(Oc3cccc(NC(=O)c4cccc(C(F)(F)F)c4)c3)ccc2n1" , what is its reported %Inh?
Solution: 5

Problem: For "O=C(Nc1c(F)cccc1F)c1cc(C(=O)c2ccccc2F)c[nH]1" , what is its reported %Inh?
Solution: 0

Problem: For "CC(C)c1nc(-c2cccc(NS(=O)(=O)c3c(F)cccc3F)c2)c(-c2ccnc(Nc3ccc(N4CCOCC4)nc3)n2)s1.Cl" , what is its reported %Inh?
Solution: 4

Problem: For "N#CC1(c2cccc(C(=O)Nc3cccc(Oc4ccc5nc(NC(=O)C6CC6)sc5n4)c3)c2)CC1" , what is its reported %Inh?
Solution: 0

Problem: For Cl.Cl.NC(CNC(=O)c1cc(Br)c(-c2ccnc3[nH]ccc23)s1)c1ccccc1 (centres unmarked) , what is its reported %Inh?
Solution: 54

Problem: For "O=C(Nc1n[nH]c2nc(-c3ccccc3O)ccc12)C1CC1" , what is its reported %Inh?
Solution: 0

Problem: For "Cl.N#CCc1ccc(Nc2nccc(Nc3ccc(Oc4ccccc4)cc3)n2)cc1" , what is its reported %Inh?
Solution: 5

Problem: For "COC(=O)Nc1nc2ccc(Oc3ccc(CC(=O)Nc4cc(C(F)(F)F)ccc4F)cc3)cc2[nH]1" , what is its reported %Inh?
Solution: 12

----------
# System: PFTK1
# Construct: gene CDK14
# cond: concentration: 1 μM, replicates: in singlicate; n = 1
Measured %Inh by item

Problem: Lab note: need %Inh with PFTK1 for entry "Cn1cc(-c2ccc3c(c2)CCN3C(=O)Cc2cc(F)cc(C(F)(F)F)c2)c2c(N)ncnc21" , please look it up.
Solution: 22%

Problem: Lab note: need %Inh with PFTK1 for entry "O=C(O)C(F)(F)F.O=c1[nH]ccc2nc(N[C@@H]3CCNC3)nc(Nc3ccc4c(c3)S(=O)(=O)CC4)c12" , please look it up.
Solution: 14%

----------
# Tested on: BMPR1A
# cond: concentration: 1 μM, replicates: in singlicate; n = 1
Measured %Inh by item

Some solved entries appear below for comparison.
# compound, targetOrTestSystem, %Inh
data = [
    ("CC(C)c1nc(-c2cccc(NS(=O)(=O)c3c(F)cccc3F)c2)c(-c2ccnc(Nc3ccc(N4CCOCC4)nc3)n2)s1.Cl", "BMPR1A", "67%"),
    ("Cc1ccc(-c2ccc3occ(-c4ccc(S(C)=O)cc4)c3c2)nn1 (centres unmarked)", "BMPR1A", "15%"),
    ("COc1ccc(C2=C(Nc3cccc(O)c3)C(=O)NC2=O)cc1", "BMPR1A", "0%"),
    ("Cc1nn2c(=O)cc(N3CCO[C@H](C)C3)nc2n1Cc1cccc(Cl)c1Cl", "BMPR1A", "35%"),
    ("Cn1cc(-c2ccc3c(c2)CCN3C(=O)Cc2cc(F)cc(F)c2F)c2c(N)ncnc21", "BMPR1A", "0%"),
    ("Nc1ncc(-c2cn[nH]c2)c2scc(-c3ccc4c(c3)CCN4C(=O)Cc3ccccc3)c12", "BMPR1A", "0%"),
    ("CC(C)NCC(Cc1ccccc1)NC(=O)c1cc(Br)c(-c2ccnc3[nH]ccc23)s1.Cl.Cl (centres unmarked)", "BMPR1A", "0%"),
]

Now for another entry.
Problem: For "N#CC1(c2cccc(C(=O)Nc3cccc(Oc4ccc5nc(NC(=O)C6CC6)sc5n4)c3)c2)CC1" , what is its reported %Inh?
Solution: 0%
